# method-summary: Metabolic stability test
# Assay type: in vitro ADME
# experimental-parameters: human liver microsomes, 0 to 30 minutes; a hydrochloride was used
Threshold check on CLint scaled: strictly below 9 mL/min/kg is T; on or above 9 mL/min/kg is F.

Ask: # TODO verify CLint scaled < 9 mL/min/kg strictly for this molecule: Cc1cnn(CCN2CC[C@]34CCN(CC5CC5)[C@H](Cc5cccc(O)c53)[C@]4(O)CC2)c1
Reply: T

Ask: Item Cc1cnn(CCN2CC[C@]34CCN(CC5CC5)[C@H](Cc5cc(C(N)=O)c(O)cc53)[C@]4(O)CC2)c1 : CLint scaled beneath 9 mL/min/kg, strictly?
Reply: F

Ask: hey, is CLint scaled for O=C(Cc1ccccn1)N1CC[C@]23CCN(CC4CC4)[C@H](Cc4cc(C(F)(F)F)c(O)cc42)[C@]3(O)CC1 lower than 9 mL/min/kg or not?
Reply: F

Ask: Criterion: CLint scaled strictly below 9 mL/min/kg. Is it met by Oc1ccc2c(c1)[C@@]13CCN(CCc4ccccc4)CC[C@@]1(O)[C@@H](C2)N(CC1CC1)CC3 ?
Reply: F

Ask: I wonder whether Cc1cnn(CCN2CC[C@]34CCN(CC5CC5)[C@H](Cc5cc(Cl)c(O)cc53)[C@]4(O)CC2)c1 has CLint scaled below 9 mL/min/kg. Can you tell?
Reply: F

Ask: # strict comparison: is reported CLint scaled < 9 mL/min/kg? input = Oc1ccc2c(c1)[C@@]13CCN(CCc4nccs4)CC[C@@]1(O)[C@@H](C2)N(CC1CC1)CC3
Reply: T

Ask: Lab note: confirm whether the reported CLint scaled for this molecule is below 9 mL/min/kg, equality not counting. molecule: Cc1cnn(CCN2CC[C@]34CCN[C@H](Cc5ccc(O)cc53)[C@]4(O)CC2)c1
Reply: T

Ask: Field: below-cutoff. Rule: recorded CLint scaled strictly less than 9 mL/min/kg. Subject: Oc1ccc2c(c1)[C@@]13CCN(CCc4ccc5ccccc5n4)CC[C@@]1(O)[C@@H](C2)N(CC1CC1)CC3
Reply: F

Ask: Bench note: check whether O=C(Cc1ccccn1)N1CC[C@]23CCN(CC4CC4)[C@H](Cc4ccc(O)cc42)[C@]3(O)CC1 shows CLint scaled below 9 mL/min/kg
Reply: T

Ask: Confirm or reject: CLint scaled of NC(=O)c1ccc2c(c1)[C@@]13CCN(C(=O)Cn4cc(C(F)(F)F)cn4)CC[C@@]1(O)[C@@H](C2)N(CC1CC1)CC3 lies strictly below 9 mL/min/kg
Reply: T

Ask: For Cc1cc2c(cc1O)[C@@]13CCN(C(=O)Cc4ccccn4)CC[C@@]1(O)[C@@H](C2)N(CC1CC1)CC3 , is the recorded CLint scaled below the cut-off of 9 mL/min/kg?
Reply: T

Ask: Record NC(=O)c1ccc2c(c1)[C@@]13CCN(C(=O)Cc4ccccn4)CC[C@@]1(O)[C@@H](C2)N(CC1CC1)CC3 : is its CLint scaled strictly below 9 mL/min/kg?
Reply: T

Ask: Report whether reported CLint scaled is lower than 9 mL/min/kg (strictly) for Cc1cnn(CCN2CC[C@]34CCN(CC5CC5)[C@H](Cc5cc(C)c(O)cc53)[C@]4(O)CC2)c1
Reply: T

Ask: Hello, is CLint scaled of the following molecule strictly smaller than 9 mL/min/kg? Cc1cnn(CCN2CC[C@]34CCN(CC5CC5)[C@H](Cc5ccc(O)cc53)[C@]4(O)CC2)c1
Reply: T

Ask: Lab note: confirm whether the reported CLint scaled for this molecule is below 9 mL/min/kg, equality not counting. molecule: O=C(Cc1ncccn1)N1CC[C@]23CCN(CC4CC4)[C@H](Cc4ccc(O)cc42)[C@]3(O)CC1
Reply: T

Ask: For this molecule, is CLint scaled lower than 9 mL/min/kg? Cc1cnn(C[C@@H](C)N2CC[C@]34CCN(CC5CC5)[C@H](Cc5ccc(O)cc53)[C@]4(O)CC2)c1
Reply: T

Ask: Does the reported CLint scaled of Oc1ccc2c(c1)[C@@]13CCN(CCc4ccccn4)CC[C@@]1(O)[C@@H](C2)N(CC1CC1)CC3 stay below 9 mL/min/kg?
Reply: T

Ask: Strictly below 9 mL/min/kg: is that where CLint scaled of NC(=O)c1ccc2c(c1O)[C@@]13CCN(C(=O)Cc4ccccn4)CC[C@@]1(O)[C@@H](C2)N(CC1CC1)CC3 sits?
Reply: T

Ask: Does this molecule meet the criterion CLint scaled < 9 mL/min/kg? Oc1ccc2c(c1)[C@@]13CCN(CCn4cc(Br)cn4)CC[C@@]1(O)[C@@H](C2)N(CC1CC1)CC3
Reply: F

Ask: Consider O=C(Cc1ncccn1)N1CCC[C@@]2(O)[C@H]3Cc4ccc(O)cc4[C@@]2(CCN3CC2CC2)C1 . Does its CLint scaled lie strictly below 9 mL/min/kg?
Reply: F

---

Please go through the items and note down their EC50.
# experimental-system: human κ opioid receptors (Homo sapiens)
# Sequence (P41145 whole entry): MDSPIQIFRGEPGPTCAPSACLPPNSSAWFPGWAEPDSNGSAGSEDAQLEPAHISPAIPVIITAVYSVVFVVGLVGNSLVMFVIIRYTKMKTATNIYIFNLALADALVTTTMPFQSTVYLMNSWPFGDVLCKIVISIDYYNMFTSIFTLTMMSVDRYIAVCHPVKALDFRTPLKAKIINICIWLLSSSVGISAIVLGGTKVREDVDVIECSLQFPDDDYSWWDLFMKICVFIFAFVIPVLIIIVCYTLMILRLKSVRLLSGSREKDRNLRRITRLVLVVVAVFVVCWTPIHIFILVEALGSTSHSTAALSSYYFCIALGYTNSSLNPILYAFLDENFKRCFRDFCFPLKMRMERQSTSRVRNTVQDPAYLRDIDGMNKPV
# method-summary: Opioid receptor function test (Lance Ultra cAMP kit, agonist activity)
# experimental-parameters: CHO cells expressing human κ opioid receptors, 10 μM forskolin, 30 minutes
Please provide the amount together with its unit, number first.

Ask: Dear colleague, please send me the reported EC50 for Cc1cnn(C[C@@H](CO)N2CC[C@]34CCN(CC5CC5)[C@H](Cc5ccc(O)cc53)[C@]4(O)CC2)c1 [Example 234] when you can.
Reply: 0.087 nM

Ask: Hello, please tell me recorded EC50 for this one: Oc1ccc2c(c1)[C@@]13CCN(CCCc4ccccn4)CC[C@@]1(O)[C@@H](C2)N(CC1CC1)CC3 [Example 69]
Reply: 0.28 nM

Ask: Answer with the recorded EC50 for the molecule listed here: Oc1ccc2c(c1)[C@@]13CCN(CCc4cc5ccccn5n4)CC[C@@]1(O)[C@@H](C2)N(CC1CC1)CC3 [Example 118]
Reply: 0.016 nM

Ask: Quickly give me recorded EC50 for Oc1ccc2c(c1)[C@@]13CCN(CCc4ncccc4F)CC[C@@]1(O)[C@@H](C2)N(CC1CC1)CC3 [Example 100]
Reply: 0.26 nM

Ask: Write down EC50 measured for item Cc1cnn(CCN2CC[C@]34CCN(CC5CC5)[C@H](Cc5ccc(O)cc53)[C@]4(O)CC2)c1 [Example 50]
Reply: 0.027 nM

Ask: Quick one: give measured EC50 for CC(C)c1cn(CC(=O)N2CC[C@]34CCN(CC5CC5)[C@H](Cc5ccc(O)cc53)[C@]4(O)CC2)nn1 [Example 165]
Reply: 0.28 nM

Ask: Specify reported EC50 for the molecule shown: Oc1ccc2c(c1)[C@@]13CCN(CCn4cccn4)CC[C@@]1(O)[C@@H](C2)N(CC1CC1)CC3 [Example 45]
Reply: 0.17 nM

---

# experimental-system: human κ opioid receptors (Homo sapiens)
# method-summary: Opioid receptor function test (Lance Ultra cAMP kit, agonist activity)
# experimental-parameters: CHO cells expressing human κ opioid receptors, 10 μM forskolin, 30 minutes
I'd appreciate it if you could label each record using EC50 and these ranges: low = under 0.09 nM, medium = from 0.09 nM up to 0.4 nM, high = 0.4 nM and over

Ask: Looking at Cc1cnn(CCN2CC[C@]34CCN(CC5(C)CC5)[C@H](Cc5ccc(O)cc53)[C@]4(O)CC2)c1 [Example 221] , which class would you pick?
Reply: low

Ask: Which of the defined bands does the recorded EC50 of Cc1cnn(CCN2CC[C@]34CCN(CC5CC5)[C@H](Cc5cc(C)c(O)cc53)[C@]4(O)CC2)c1 [Example 262] sit within?
Reply: low

Ask: Hello team, could you let me know which band the following compound falls into: Cc1cnn([C@H]2CC[C@@H](N3CC[C@]45CCN(CC6CC6)[C@H](Cc6ccc(O)cc64)[C@]5(O)CC3)C2)c1 [Example 236]
Reply: low

Ask: # bin label for Oc1ccc2c(c1)[C@@]13CCN(CCn4nc(C(F)F)cc4C(F)F)CC[C@@]1(O)[C@@H](C2)N(CC1CC1)CC3 [Example 58]
Reply: medium

Ask: Textbook exercise: identify the category of the compound given here, Oc1ccc2c(c1)[C@@]13CCN(CCn4cc(Br)cn4)CC[C@@]1(O)[C@@H](C2)N(CC1CC1)CC3 [Example 61] , according to its measured value.
Reply: low

Ask: Record Oc1ccc2c(c1)[C@@]13CCN(CCc4cnccn4)CC[C@@]1(O)[C@@H](C2)N(CC1CC1)CC3 [Example 84] — which class?
Reply: high

Ask: Sort Oc1ccc2c(c1)[C@@]13CCN(CCn4cc5ccccc5n4)CC[C@@]1(O)[C@@H](C2)N(CC1CC1)CC3 [Example 120] into one of the categories.
Reply: low

Ask: Hello team, could you let me know which band the following compound falls into: Cc1cnn(CCN2CC[C@]34CCN(CC5CC5(F)F)[C@H](Cc5ccc(O)cc53)[C@]4(O)CC2)c1 (some centres unmarked) [Example 218]
Reply: medium

Ask: Please indicate the class for Oc1ccc2c(c1)[C@@]13CCN(CCn4cc(F)cn4)CC[C@@]1(O)[C@@H](C2)N(CC1CC1)CC3 [Example 184] based on its EC50.
Reply: medium

Ask: Could you tell me which band Cc1cc(C)n(CCN2CC[C@]34CCN(CC5CC5)[C@H](Cc5ccc(O)cc53)[C@]4(O)CC2)n1 [Example 56] belongs to?
Reply: high

Ask: Entry Oc1ccc2c(c1)[C@@]13CCN(CCc4ccccc4)CC[C@@]1(O)[C@@H](C2)N(CC1CC1)CC3 [Example 90] belongs to which category?
Reply: high

Ask: Using the reported EC50, which band applies to Oc1ccc2c(c1)[C@@]13CCN(CCc4ncccn4)CC[C@@]1(O)[C@@H](C2)N(CC1CC1)CC3 [Example 83] ?
Reply: medium

Ask: Exercise: read the entry O=C(CCc1nccs1)N1CC[C@]23CCN(CC4CC4)[C@H](Cc4ccc(O)cc42)[C@]3(O)CC1 [Example 210] and state which class it falls under.
Reply: high
